Attribution: patent US20230250160A1

Recorded koff values for a group of binders are listed next.
- Study System: T1, Human Serum Albumin (human, UniProt P02768 25-609)
- T1 construct: also called HSA
- T1 sequence (P02768 25-609 limits assumed): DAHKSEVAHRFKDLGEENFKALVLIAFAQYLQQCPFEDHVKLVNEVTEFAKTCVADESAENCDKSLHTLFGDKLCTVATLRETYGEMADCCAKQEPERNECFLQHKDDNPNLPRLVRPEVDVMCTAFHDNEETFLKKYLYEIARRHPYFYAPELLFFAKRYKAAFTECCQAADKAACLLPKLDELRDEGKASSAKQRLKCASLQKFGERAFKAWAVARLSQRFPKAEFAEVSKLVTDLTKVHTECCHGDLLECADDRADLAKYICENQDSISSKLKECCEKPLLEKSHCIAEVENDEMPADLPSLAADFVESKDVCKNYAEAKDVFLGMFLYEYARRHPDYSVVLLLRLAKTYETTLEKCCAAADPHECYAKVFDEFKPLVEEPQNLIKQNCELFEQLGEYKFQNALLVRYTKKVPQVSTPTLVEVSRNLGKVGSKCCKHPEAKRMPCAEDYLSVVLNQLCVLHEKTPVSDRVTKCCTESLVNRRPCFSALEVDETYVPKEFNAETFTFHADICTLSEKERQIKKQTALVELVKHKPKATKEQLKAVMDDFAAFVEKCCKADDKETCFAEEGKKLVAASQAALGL
- Test Description: SPR Biacore T200, HSA on CM5 chip, ADAPT injected, 1:1 fit
Measurement Kind: koff (s⁻¹)

>>> endpoint_value("LIWAKAEAVQELFMYGVSDFYYDLIIKAKTVEGVEALKLHILAALP (designed binder, Single domain of about 6 kDa, made in E. coli, purified on HSA resin) [ADAPT variant TNFα_05]")
0.00039
>>> endpoint_value("LAVAKAYAKYELAFYGVSDFYNELILKAKTVEGVEALKLHILAALP (designed binder, also called INS_03) [ADAPT variant Insulin_03]")
0.0014
>>> endpoint_value("LHEAKDWADYELWSYGVSDFYRALIWKAKTVEGVEALKLHILAALP (designed binder) [ADAPT variant ANG_13]")
"6.8e-05"
>>> endpoint_value("LYWAKDYADYELWQYGVSDFYRSLIWKAKTVEGVEALKLHILAALP (designed binder, also called ANG_2) [ADAPT variant ANG_02]")
"4.5e-05"
>>> endpoint_value("LVIAKAYAQYELAFYGVSDFYSDLIKKAKTVEGVEALKLHILAALP (designed binder, also called INS_01) [ADAPT variant Insulin_01]")
0.0014
>>> endpoint_value("LKVAKIIAFHELWEYGVSDFYLSLIDKAKTVEGVEALKLHILAALP (designed binder) [ADAPT variant CRP_38]")
0.0054
